Assay Explanation: qHTS assay to identify small molecule that activate the aryl hydrocarbon receptor (AhR) signaling pathway - cell viability counter screen (AID 743086);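 further: HepG2 liver cells carrying the AhR DRE luciferase reporter; nearly all actives have a fitted effect of over 45% in size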
Test Context: HepG2-AhR-luc viability, CellTiter-Fluor, 24 h; series mostly up to 70.3 µM
Inconclusive results are not listed. The source made the active and inactive calls. The call rests on the fitted dose curve; in most records, active means well fitted cell-killing curve with a large enough effect in the repeat runs; inconclusive means weak or mixed curves, or effect the other way; inactive means flat fitted curve, though single readings scatter.
Endpoint Label: outcome

Worked cases, outcome given:
{"Compound": "O=NN1CCCCCCC1", "Val": "inactive"}
{"Compound": "COP(N)(=O)SC (configuration not stated)", "Val": "inactive"}
{"Compound": "Cc1cc(Cl)ccc1O", "Val": "inactive"}
{"Compound": "O=C1CCCN1", "Val": "inactive"}
{"Compound": "Cc1ccccc1O", "Val": "inactive"}

Which outcome value belongs to Clc1ccc(Cl)cc1 ?
inactive

Also check O=S(=O)(c1ccc(O)cc1)c1ccc(O)cc1
inactive

Also check COC(=O)c1ccccc1N
inactive

Also check Cc1ccc(N)cc1Cl
inactive

Also check Cc1cccc([N+](=O)[O-])c1
inactive

Also check ClCCBr
inactive

Also check CN=C=S
inactive

----------
Assay Explanation: qHTS assay to identify small molecule agonists of the retinoic acid receptor (RAR) signaling pathway (AID 1159553)
Test Context: C3RL4 RARE luciferase reporter, agonist, 6 h
Records with an inconclusive call do not appear. Activity calls are given as the source filed them. The call rests on the fitted dose curve; in most records, active means well fitted activation curve with a large enough effect in the repeat runs; inconclusive means weak or mixed curves, or effect the other way; inactive means no such curve, though single readings can be large or run the other way.
Answer with one of the outcomes given here: active, inactive

Answered cases to consult:
{"Compound": "CCNc1nc(NC(C)(C)C)nc(SC)n1", "Group": "inactive"}
{"Compound": "COC(=O)c1ccccc1C(=O)OC", "Group": "inactive"}
{"Compound": "C1CN2CCN1CC2", "Group": "inactive"}
{"Compound": "Cc1cc(-c2cc(C)c(N)c(C)c2)cc(C)c1N", "Group": "inactive"}

Record request — test call for O=c1[nH]c(=O)[nH]c(=O)[nH]1
inactive

Also check c1ccc2c(c1)Oc1ccccc1O2
inactive

Also check CC1C=[C-]C=C1.[C-]#[O+].[C-]#[O+].[C-]#[O+].[Mn]
inactive

----------
Assay Explanation: qHTS RealTime-Glo MT Cell Viability Assay in HepG2 cells - 0 hour (AID 1224889); further: nearly all actives have a fitted effect of over 50% in size
Test Context: RealTime-Glo luminescence; series mostly up to 76.8 µM
Results filed as inconclusive are left out. Activity calls are given as the source filed them. Calls follow the shape of the dose curve; as a rule, active = well fitted cell-killing curve with a large enough effect in the repeat runs; inconclusive = weak or mixed curves, or effect the other way; inactive = flat fitted curve, though single readings scatter.
Endpoint Label: outcome

{"Molecule": "CCCCCCCCCCCC#N", "Endpoint Label": "outcome", "Val": "inactive"}
{"Molecule": "C=C(C)CCl", "Endpoint Label": "outcome", "Val": "inactive"}
{"Molecule": "CCC[N+](=O)[O-]", "Endpoint Label": "outcome", "Val": "inactive"}
{"Molecule": "Clc1ccccc1Cl", "Endpoint Label": "outcome", "Val": "inactive"}

Which outcome value belongs to Nc1ccc(Oc2ccc(N)cc2)cc1 ?
inactive

Also check C[C@]12CC[C@H]3[C@@H](CC[C@@]45O[C@@H]4C(O)=C(C#N)C[C@]35C)[C@@H]1CC[C@@H]2O
inactive

Also check [O-][Cl+2]([O-])O
inactive

Also check CCCN(CCC)N=O
inactive

Also check CCN(CC)CCO
inactive

Also check O=c1n(Cl)c(=O)n(Cl)c(=O)n1Cl
inactive

Also check c1ccc2c(c1)Oc1ccccc1O2
inactive

----------
Assay Explanation: qHTS assay to identify small molecule HDAC inhibitors - cell viability counter screen (AID 1259365); further: nearly all actives have a fitted effect of over 50% in size
Test Context: HCT-116 viability, CellTiter-Glo ATP luminescence, 2 h; series mostly up to 92.4 µM
Active and inactive are the calls of the source. The call rests on the fitted dose curve; in most records, active means well fitted cell-killing curve with a large enough effect in the repeat runs; inconclusive means weak or mixed curves, or effect the other way; inactive means flat fitted curve, though single readings scatter.
Endpoint Label: outcome

{"Compound": "Clc1ccc(Cl)cc1", "outcome": "inactive"}
{"Compound": "COC(=O)c1ccccc1N", "outcome": "inactive"}
{"Compound": "O=[N+]([O-])c1ccccc1", "outcome": "inactive"}
{"Compound": "O=[N+]([O-])c1ccc(Oc2ccc(Cl)cc2Cl)cc1", "outcome": "inactive"}

Which outcome value belongs to c1ccc(-c2ccccc2)cc1 ?
inactive

Also check Cc1ccc(N)cc1Cl
inactive

Also check OC(O)C(Cl)(Cl)Cl
inactive

Also check O=NN1CCCCCCC1
inactive

Also check CCC(C)(CC)c1cc(NC(=O)c2c(OC)cccc2OC)on1
inactive

Also check C1CC2OC2CC1C1CO1 (stereo not given)
inactive

Also check Cn1cc(-c2ccccc2)c(=O)c(-c2cccc(C(F)(F)F)c2)c1
inactive

Also check CCCN(CCC)N=O
inactive

Also check CCCCOC(=O)c1ccccc1C(=O)OCCCC
inactive

Also check NCC(O)c1ccc(O)cc1 (stereo not given)
inactive

Also check CNC(=O)Oc1ccccc1OC(C)C
inactive

src = PubChem BioAssay (Tox21)
